Assay: xn = mol fraction of the nth substance listed
Details: 303.15 K; 100 kPa; x1 = 0.9002
Lab note: cut-off is 600 mPa·s. Strictly less in viscosity is label 1. Exactly 600 mPa·s or more is label 0.

>>> assignedcategory("C1CCC2=[NH+]CCCN2CC1.c1nc[n-]n1 + CN(C)C=O")
"label 1"
>>> assignedcategory("C1CCC2=[NH+]CCCN2CC1.c1nc[n-]n1 + CO")
"label 0"
>>> assignedcategory("C1CCC2=[NH+]CCCN2CC1.c1nc[n-]n1 + CCO")
"label 0"

Let us examine a further case.
Query: Consider C1CCC2=[NH+]CCCN2CC1.c1nc[n-]n1 + CC(C)O . Does its viscosity lie strictly below 600 mPa·s?
Response: label 0
